system: SR; assay: NCI tumour cell line growth inhibition, 48 h
Calls of active or inactive are those of the source. Cut-off read from the data, not from the text of the source: active = GI50 up to about 1.1 µM and inactive = higher. Peptide text beside a SMILES is read from it. * marks the point of attachment. Trt = c1ccc(C(c2ccccc2)(c2ccccc2)*)cc1; Cbz = O=C(OCc1ccccc1)*
Classes used: active, inactive

[[record]]
molecule = "Brc1ccc2c(C3CN[C@@H](c4c[nH]c5cc(Br)ccc45)CN3)c[nH]c2c1 (some centres undefined)"
label_value = "active"

[[record]]
molecule = "COc1ccc(/C=C2\\N=C(c3ccccc3)OC2=O)c(OCc2ccccc2)c1"
label_value = "inactive"

[[record]]
molecule = "Cc1ccccc1C1OC(=O)c2ccc3ccccc3c21 (centres undefined)"
label_value = "active"

[[record]]
molecule = "COC(=O)c1nc2c3c(cccc3c1C(=O)OC)Nc1ccccc1-2"
label_value = "inactive"

[[record]]
molecule = "Cn1c(=O)c2c(ncn2CN2CCN(Cn3cnc4c3c(=O)n(C)c(=O)n4C)CC2)n(C)c1=O"
label_value = "inactive"

[[record]]
molecule = "N/C(=N\\c1cccc(Cl)c1)c1ccccc1N"
label_value = "inactive"

[[record]]
molecule = "COc1cc(/C=C(\\C#N)c2ccccc2)cc(OC)c1"
label_value = "inactive"

[[record]]
molecule = "CCOC(=O)N1C2C=C(C)C(C3C(C)C(=O)N31)N(C(=O)c1ccccc1)O2 (centres undefined)"
label_value = "inactive"

[[record]]
molecule = "C/C(=N\\NC(=S)Nc1ccc(C)cc1)c1nc2cccnc2[nH]1"
label_value = "active"

[[record]]
molecule = "Nc1nc(N)c2c(Cl)c(CNc3ccc(C(=O)NC(CC(=O)O)C(=O)O)cc3)ccc2n1 (centres undefined)"
label_value = "active"

[[record]]
molecule = "N[C@@H]1C[C@H](N)c2c(Cl)sc(Cl)c21"
label_value = "inactive"

[[record]]
molecule = "CC(=O)c1cnc2oc3ccc(O)cc3c2c1-c1ccccc1"
label_value = "inactive"

[[record]]
molecule = "COC(=O)C(CO)NC(=O)C(CSC(c1ccccc1)(c1ccccc1)c1ccccc1)NC(=O)OCc1ccccc1 (centres undefined) (Cbz-Cys(Trt)-Ser-OMe; configuration not given here)"
label_value = "active"

[[record]]
molecule = "CN(C)CCCn1cnc2ncccc2c1=O"
label_value = "inactive"

[[record]]
molecule = "C[C@H]1[C@H](C)CC[C@]2(C(=O)OC3OC(CO)C(O)C(O)C3O)CC[C@]3(C)C(=CC[C@@H]4[C@@]5(C)C[C@@H](O)[C@@H]6OC(=O)c7cc(O)c(O)c(O)c7-c7c(cc(O)c(O)c7O)C(=O)OC[C@]6(CO)[C@@H]5CC[C@]43C)[C@H]12 (some centres undefined)"
label_value = "inactive"

[[record]]
molecule = "COc1ccc(N2C(=O)[C@@H]3[C@@H]4CC(C)CC[C@@H]4c4c([nH]c5ccccc45)[C@@H]3C2=O)cc1 (some centres undefined)"
label_value = "inactive"

[[record]]
molecule = "COc1cc(/C=C/C(=O)O)ccc1O [FERULATE]"
label_value = "inactive"

[[record]]
molecule = "COC(=O)C[C@H]1[C@]2(C)C3=C(C)[C@H](c4ccoc4)CC3O[C@@H]2[C@@H]2OC(=O)[C@]3(C)CCC(=O)[C@@]1(C)[C@@H]23 (some centres undefined)"
label_value = "inactive"

[[record]]
molecule = "O=C1Nc2ccc(Br)cc2/C1=N/NC(=S)Nc1ccc(F)cc1"
label_value = "inactive"

